System: SN12C renal
ASSAY PROTOCOL: NCI tumour cell line growth inhibition, 48 h; in the data active = GI50 below about 0.43 µM; inactive = the rest
Field 'call' accepts YES for active, NO for inactive

Check out these entries, answers already filled in.
[[record]]
compound = "CC(=O)NS(=O)(=O)c1ccc(-n2nc(-c3ccccc3)cc2-c2cc(O)ccc2O)cc1"
assigned_category = "NO"

[[record]]
compound = "COc1ncnn2ccc(-c3cnc4nc(C)n(Cc5nnc(C(C)F)o5)c4c3)c12 (stereo unspecified)"
assigned_category = "YES"

[[record]]
compound = "CCOC(=O)Cc1csc(Nc2nc(O)c(C3=c4ccccc4=NC3=O)s2)n1"
assigned_category = "NO"


*Q* What call does the record list for "Clc1ccc(Nc2ncnc3ccccc23)cc1" ?
*A* NO

*Q* What call does the record list for "ClCCN(CCCl)c1ccc(OCc2ccccc2)cc1" ?
*A* NO

*Q* What call does the record list for "COc1ccc(/C=C/C(=O)c2ccc(B(O)O)cc2)cc1O" ?
*A* NO

---

Test system: CCRF-CEM leukemia
ASSAY PROTOCOL: NCI tumour cell line growth inhibition, 48 h
Kindly state TGI for each of the entries shown.
Numbers only, in µM.

Worked examples, 2 compounds total:
[[record]]
compound = "CC(C)c1ccc2c(c1)CCC1C(C)(CN)CCCC21C (stereo not given)"
experimental_result = 3.92

[[record]]
compound = "CCOC(=O)c1c2c(n(Cc3ccccc3)c1C)-c1nc[nH]c1C(=O)C2=O"
experimental_result = 7.87


Here's the next entry for you.
*Q* Could you please provide reported TGI for "CCOC(=O)Cc1csc(Nc2nc(O)c(C3=c4ccccc4=NC3=O)s2)n1" ? Thanks!
*A* 50.8

---

Tested on: MOLT-4 leukemia
ASSAY PROTOCOL: NCI tumour cell line growth inhibition, 48 h; in the data active = GI50 below about 0.43 µM; inactive = the rest
Field 'call' accepts 1.0 (active), 0.0 (inactive)

[[record]]
molecule = "COc1c(O)cc2c(c1CC=C(C)C)OC(=O)c1c(cc(O)c(CC=C(C)C)c1O)O2"
assigned_category = 0.0

[[record]]
molecule = "COC(=O)Nc1nc2ccc(C(=O)C3CC3)cc2[nH]1"
assigned_category = 0.0

[[record]]
molecule = "CSc1nc(SC)c2cnn(-c3ccnc4cc(Cl)ccc34)c2n1"
assigned_category = 0.0

[[record]]
molecule = "N#CC1(C#N)C2C=CC(C3CC=CC32)C1(C#N)C#N (stereo not given)"
assigned_category = 0.0

[[record]]
molecule = "O=C(/C=C/c1cccnc1)c1ccccc1"
assigned_category = 0.0


*Q* What call does the record list for "O=C([CH-]C(=O)c1ccccc1)c1ccccc1.O=C([CH-]C(=O)c1ccccc1)c1ccccc1.[CH2-]CCC.[CH2-]CCC.[Sn+4]" ?
*A* 1.0

*Q* What call does the record list for "O=C(CSc1nc2ccc([N+](=O)[O-])cc2[nH]1)Nc1ccc([N+](=O)[O-])cc1" ?
*A* 0.0

*Q* What call does the record list for "O=C1NC(=N[C@@H]2C[C@H]2c2ccccc2)S/C1=C\c1ccc2ncccc2c1" ?
*A* 0.0

*Q* What call does the record list for "NS(=O)(=O)c1ccc(N=Nc2c(O)[nH]c3cccc(CCc4ccncc4)c23)cc1" ?
*A* 0.0

*Q* What call does the record list for "COc1cc2cc(Oc3ccc(NC(=O)Nc4ccc(F)c(C(F)(F)F)c4)cc3)c(C)nc2cc1OCCN1CCOCC1" ?
*A* 0.0

---

Test system: MDA-MB-231 breast
ASSAY PROTOCOL: NCI tumour cell line growth inhibition, 48 h
Kindly state TGI for each of the entries shown.
Numbers only, in µM.

[[record]]
molecular_string = "COc1cc2c3c(n(CCCNC(C)(C)CO)c(=O)c2cc1OC)-c1cc2c(cc1C3=O)OCO2"
endpoint_name = "TGI"
readout_units = "µM"
experimental_result = 7

[[record]]
molecular_string = "Oc1c(CCl)cc(Cl)cc1Cc1cc(Cl)cc(Cc2cc(Cl)cc(CCl)c2O)c1O"
endpoint_name = "TGI"
readout_units = "µM"
experimental_result = 7.63

[[record]]
molecular_string = "O=C(NCCCNc1cc(-c2cn(-c3ccccc3)nc2-c2cccc(O)c2)ccn1)c1ccc(F)cc1"
endpoint_name = "TGI"
readout_units = "µM"
experimental_result = 4.98


Here's the next entry for you.
*Q* Could you please provide reported TGI for "CO[C@@H]1C[C@H]2[C@@H]3CC[C@H]([C@@H](C)COC(C)=O)[C@@]3(C)CC[C@@H]2[C@@]2(C)CC[C@H]3C[C@]312" ? Thanks!
*A* 24.3

Reference source for all entries: PubChem BioAssay (NCI)
